- SUBJECT_OF_TEST: Kras and SOS1 (biotin-tagged human Kras loaded with GDP, His-tagged human SOS1) (Homo sapiens, UniProt P01116, G12D)
- Construct: made in house; host or cells: E. coli (stated for Kras only)
- Sequence (P01116 1-188 isoform P01116-2 G12D): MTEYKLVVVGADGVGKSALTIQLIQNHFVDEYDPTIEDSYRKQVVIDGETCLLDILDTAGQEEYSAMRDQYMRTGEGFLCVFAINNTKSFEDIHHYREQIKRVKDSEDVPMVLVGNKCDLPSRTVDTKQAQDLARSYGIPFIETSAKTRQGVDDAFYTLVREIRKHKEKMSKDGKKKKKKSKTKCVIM
- PROCEDURE_TEXT: Protein-protein interaction inhibition between Kras and SOS1 (KrasGl2D-SOS PPI) using AlphaScreen
- Type: binding
- MEASUREMENT_SETUP: AlphaScreen; biotin-tagged human Kras loaded with GDP, His-tagged human SOS1; read-out: KRAS G12D-SOS PPI IC50
Starred links: 1 amine or outer side, 2 acyl side, 3 side chain; linkers in the order of their positions; H or OH if unused. Positions of bridges follow the written chain, without caps; N, C: chain ends. Non-standard residues stand in square brackets, D forms with d. Residues, ends and D or L forms follow the SMILES beside them. *: point of attachment. hPhe(3-F,4-CF3) = N[C@@H](CCc1ccc(C(F)(F)F)c(F)c1)C(=O)O; NMePhe(4-Cl) = CN[C@@H](Cc1ccc(Cl)cc1)C(=O)O; NMeNle(6-CHF2) = CN[C@@H](CCCCC(F)F)C(=O)O; X33 = Cc1ccc(CC[C@H](N[*:1])C(=O)[*:2])cc1; NMeF = CN[C@@H](Cc1ccccc1)C(=O)O; NMeL = CN[C@@H](CC(C)C)C(=O)O; d(β3hA) = C[C@@H](N)CC(=O)O; NMeA = CN[C@@H](C)C(=O)O; Pyrrolidide = C1CCN(*)C1; Aib = CC(C)(N)C(=O)O; Sar = CNCC(=O)O
ASSAY_METRIC: IC50 (nM)

INSERT INTO assay_data (molecule, reported_value) VALUES
  ('CC[C@H](C)[C@@H]1NC(=O)[C@H](CC(C)C)N(C)C(=O)C[C@@H](C)NC(=O)[C@H](CC(C)C)N(C)C(=O)C(C)(C)NC(=O)[C@H](CC(C)C)N(C)C(=O)[C@H](CCc2ccc(C(F)(F)F)c(F)c2)NC(=O)CN(C)C(=O)[C@H](CCCCC(F)F)N(C)C(=O)CN(C)C(=O)CN(C)C1=O [Compound 1526] (cyclo([Aib][NMeL][d(β3hA)][NMeL]I[Sar][Sar][NMeNle(6-CHF2)][Sar][hPhe(3-F,4-CF3)][NMeL]))', 100),
  ('CC[C@H](C)[C@@H]1NC(=O)[C@H](C)N(C)C(=O)C[C@@H](C(=O)N2CCCC2)NC(=O)[C@H](CC(C)C)N(C)C(=O)[C@H](Cc2ccccc2)N(C)C(=O)[C@H](CC(C)C)NC(=O)[C@H](CCc2ccc(C)cc2)NC(=O)CN(C)C(=O)[C@H](Cc2ccc(Cl)cc2)N(C)C(=O)CN(C)C(=O)CN(C)C1=O [Compound 398] ([NMeA]I[Sar][Sar][NMePhe(4-Cl)][Sar][X33]L[NMeF][NMeL]D-Pyrrolidide; lactam N-11)', 120);
